Tested on: Botrytis cinerea
Method: Fungicidal activity, fungicide growth rate method, BC
Assay type: cell-based
Measurement setup: Botrytis cinerea, 50 μg/mL; read-out: fungicidal activity (growth inhibition rate), BC
Quantity: inhibition at 50 µg/mL

C=CC[C@@H]1C[C@]2(O)CCO[C@@]23CC[C@H](O)C[C@H]13 [Zyj07-33]: > 50%
O=C1CCC23CC=CCC12O3 (stereo not drawn) [Zyj06-39]: 36%
C=CC[C@@H]1C[C@]2(O)CCO[C@@]23C[C@@H](O)[C@H](Cl)C[C@H]13 [Zyj07-101]: > 50%

====

In this section we review reported inhibition at 50 µg/mL values for a set of compounds.
Test system: Cercospora arachidicola
Method: Fungicidal activity, fungicide growth rate method, CA
Format: cell-based
Measurement setup: Mycosphaerella arachidis, 50 μg/mL; read-out: fungicidal activity (growth inhibition rate), CA
Quantity: inhibition at 50 µg/mL

C=C(C)C1CC(=O)[C@@]2(O)CC=CC[C@H]12 (stereo partly drawn): > 50%
CO[C@@H]1CC(=O)[C@@]2(O)CC=CC[C@H]12: > 50%
C=CC[C@@H]1C[C@]2(O)CC(=O)O[C@@]23CC=CC[C@H]13: 46%
